Tested on: Zika virus NS2B-NS3 protease (linked construct)
assay summary: Primary screen NINDS Rhodamine qHTS for Zika virus inhibitors (AID 1347160); note: nearly all actives have a fitted effect of over 55% in size; note: potency is the fitted concentration of half-maximal effect
applied conditions: purified NS2B-NS3 protease, Rhodamine110 substrate fluorescence; series mostly up to 57.1 µM
Records with an inconclusive call do not appear. Calls of active or inactive are those of the source. Calls come from the whole dose curve; as a rule, active = well fitted inhibition curve with a large enough effect; inconclusive = small, poorly fitted or top-dose-only effect; inactive = no such curve, though single readings can be large or run the other way.
observed property: Potency

Reported Potency, molecule CC(C)CC1NC(=O)C2CC3(O)c4ccccc4NC3N2C1=O (stereo not given) : ____
inactive

Can you look up the measured Potency of CC1(C)CCC[C@@]2(C)C1[C@H](OC(=O)/C=C/C=C/C(=O)O)C=C1COC(=O)[C@@]12O (stereo not given in full) for me?
inactive

Sample N#Cc1ccc(-c2cnc3[nH]cc(NC(=O)c4cccnc4)c3c2)cc1 — what was its Potency?
inactive

Returns the measured Potency for the input molecule. Input: CC1(C)CCC(C)(C)c2cc(C3(c4ccc(C(=O)O)cc4)OCCO3)ccc21
5.62 µM (active)

Now look at this one.
GET /values?readout=Potency&item= CCOc1cc(C)c(Cl)cc1S(=O)(=O)n1cnc2ccccc21
inactive

The measured values listed here are drawn from PubChem BioAssay (NCATS).
